We begin with a simple list: items and their reported EC50.
- TEST_SYSTEM: human S1PR5 (Homo sapiens)
- Construct: host or cells: CHO-K1
- ASSAY_PROTOCOL: Intracellular Ca2+ release (FLIPR) agonist potency, S1P5
- Format: cell-based
- ASSAY_SETUP: recombinant CHO-K1 cells expressing human S1PR5, aequorin, Gq/i5; Calcium 5 FLIPR; read-out: S1P5 EC50 range

# COMPOUND, EC50
data = [
    ("CCc1cccc(Cl)c1COc1ccc2c(c1)OCC(N1CCC(CC(=O)O)C1)C2 (stereo not drawn)", "< 10 nM"),
    ("O=C(O)C1CCN(C2COc3cc(OCc4ccccc4)ccc3C2)CC1 (stereo not drawn)", "1000 to 10000 nM"),
    ("CCc1cccc(Cl)c1COc1ccc2c(c1)CCC(NCC(=O)N(C)OC)C2 (stereo not drawn)", "< 10 nM"),
    ("O=C(O)COC1CCc2cc(OCc3c(F)cccc3C(F)(F)F)ccc2C1 (stereo not drawn)", "1000 to 10000 nM"),
    ("O=C(O)C1CN(C2COc3cc(OCc4cc(OC(F)(F)F)ccc4F)ccc3C2)C1 (stereo not drawn)", "100 to 1000 nM"),
    ("O=C(O)COC1CCc2cc(OCc3c(F)ccc(Cl)c3F)ccc2C1 (stereo not drawn)", "< 10 nM"),
    ("O=C(O)CNC1COc2cc(OCC3CCCCC3)ccc2C1 (stereo not drawn)", "100 to 1000 nM"),
    ("O=C(O)COC1CCc2cc(OCc3c(F)cccc3F)ccc2C1 (stereo not drawn)", "1000 to 10000 nM"),
    ("O=C(O)COC1CCc2cc(OCc3cccc(Cl)c3)ccc2C1 (stereo not drawn)", "100 to 1000 nM"),
]

---

We begin with a simple list: items and their reported EC50.
- TEST_SYSTEM: human S1PR4 (Homo sapiens)
- Construct: host or cells: CHO-K1
- Sequence (O95977 whole entry): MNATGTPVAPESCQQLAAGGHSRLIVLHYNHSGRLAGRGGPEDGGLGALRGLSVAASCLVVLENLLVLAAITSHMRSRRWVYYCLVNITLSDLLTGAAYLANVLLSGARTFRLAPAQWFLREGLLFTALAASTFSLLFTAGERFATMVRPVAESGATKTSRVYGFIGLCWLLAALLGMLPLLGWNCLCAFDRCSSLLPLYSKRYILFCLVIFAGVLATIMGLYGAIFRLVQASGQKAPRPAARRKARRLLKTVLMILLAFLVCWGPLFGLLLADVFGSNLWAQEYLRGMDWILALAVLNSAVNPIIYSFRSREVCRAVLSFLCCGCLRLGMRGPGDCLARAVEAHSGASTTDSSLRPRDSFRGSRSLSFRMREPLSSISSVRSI
- ASSAY_PROTOCOL: Intracellular Ca2+ release (FLIPR) agonist potency, S1P4
- Format: cell-based
- ASSAY_SETUP: recombinant CHO-K1 cells expressing human S1PR4, aequorin, Gq/i5; Calcium 5 FLIPR; read-out: S1P4 EC50

# MOLECULE, EC50
measured = [
    ("O=C(O)C1CN(C2COc3cc(OCCc4ccccc4)ccc3C2)C1 (centres unmarked) [Compound 226]", "> 1 µM"),
    ("CCc1cccc(Cl)c1COc1ccc2c(c1)OCC(NC1(CC(=O)O)CCC1)C2 (centres unmarked) [Compound 116]", "< 1 µM"),
    ("Cc1ccc(Cl)c(COc2ccc3c(c2)CCC(OCC(=O)O)C3)c1F (centres unmarked) [Compound 150]", "> 1 µM"),
    ("Cc1cc(C)cc(COc2ccc3c(c2)CCC(OCC(=O)O)C3)c1 (centres unmarked) [Compound 156]", "> 1 µM"),
    ("O=C(O)COC1CCc2cc(OCc3c(F)cccc3Cl)ccc2C1 (centres unmarked) [Compound 169]", "> 1 µM"),
]

---

- TEST_SYSTEM: human S1PR5 (Homo sapiens)
- Construct: host or cells: CHO-K1
- ASSAY_PROTOCOL: Intracellular Ca2+ release (FLIPR) agonist potency, S1P5
- Assay type: cell-based
- ASSAY_SETUP: recombinant CHO-K1 cells expressing human S1PR5, aequorin, Gq/i5; Calcium 5 FLIPR; read-out: S1P5 EC50 range
pEC50: −log10 of the molar value.
ENDPOINT_LABEL: pEC50

# COMPOUND, ENDPOINT_LABEL, ENDPOINT_VALUE
data = [
    ("CCOc1ccc(C#Cc2ccc3c(c2)OCC(N2CC(C(=O)O)C2)C3)cc1 (centres unmarked) [Compound 45]", "pEC50", "6.00 to 7.00"),
    ("O=C(O)C1CN(C2COc3cc(OCc4ccc(C(F)(F)F)cc4F)ccc3C2)C1 (centres unmarked) [Compound 106]", "pEC50", "5.00 to 6.00"),
    ("Cc1ccc(F)cc1COc1ccc2c(c1)CCC(OCC(=O)O)C2 (centres unmarked) [Compound 155]", "pEC50", "5.00 to 6.00"),
    ("O=C(O)[C@H]1C[C@H](NC2CCc3cc(OCc4c(Cl)cccc4Cl)ccc3C2)C1 (some centres unmarked) [Compound 79]", "pEC50", "> 8.00"),
    ("O=C(O)CCOC1CCc2cc(OCc3ccccc3C(F)(F)F)ccc2C1 (centres unmarked) [Compound 178]", "pEC50", "5.00 to 6.00"),
    ("CCc1cccc(F)c1COc1ccc2c(c1)OCC(N1CC(C(=O)O)C1)C2 (centres unmarked) [Compound 65]", "pEC50", "> 8.00"),
    ("CCc1cccc(F)c1COc1ccc2c(c1)OCC(N1CC(C(=O)O)C1)C2 (single isomer, unassigned) [Compound 146]", "pEC50", "> 8.00"),
    ("CCc1cccc(Cl)c1COc1ccc2c(c1)CCC(NCC(=O)NOC)C2 (centres unmarked) [Compound 218]", "pEC50", "6.00 to 7.00"),
    ("O=C(O)C1CN(C2COc3cc(C#Cc4c(F)cccc4F)ccc3C2)C1 (centres unmarked) [Compound 47]", "pEC50", "7.00 to 8.00"),
    ("O=C(O)C1CCN(C2COc3cc(OCc4c(Cl)cccc4Cl)ccc3C2)C1 (single isomer, unassigned) [Compound 50]", "pEC50", "> 8.00"),
    ("O=C(O)COC1COc2cc(OCc3c(F)ccc(Cl)c3F)ccc2C1 (centres unmarked) [Compound 234]", "pEC50", "5.00 to 6.00"),
    ("O=C(O)C1CCN(C2COc3cc(OCc4c(Cl)cccc4Cl)ccc3C2)CC1 (centres unmarked) [Compound 110]", "pEC50", "7.00 to 8.00"),
    ("CCc1cccc(Cl)c1COc1ccc2c(c1)OCC(N(C)CC(=O)O)C2 (centres unmarked) [Compound 124]", "pEC50", "> 8.00"),
    ("CCc1cccc(Cl)c1COc1ccc2c(c1)CCC(NCC1(C(=O)O)CC1)C2 (centres unmarked) [Compound 76]", "pEC50", "> 8.00"),
    ("O=C(O)C1CN(C2COc3cc(C#CC4CCCCC4)ccc3C2)C1 (centres unmarked) [Compound 39]", "pEC50", "6.00 to 7.00"),
    ("O=C(O)CCOC1CCc2cc(OCc3ccccc3OC(F)(F)F)ccc2C1 (centres unmarked) [Compound 190]", "pEC50", "5.00 to 6.00"),
    ("O=C(O)COC1CCc2cc(OCc3cccc(F)c3)ccc2C1 (centres unmarked) [Compound 198]", "pEC50", "5.00 to 6.00"),
]

---

- TEST_SYSTEM: human S1PR5 (Homo sapiens, UniProt Q9H228)
- Construct: host or cells: CHO-K1
- Sequence (Q9H228 whole entry): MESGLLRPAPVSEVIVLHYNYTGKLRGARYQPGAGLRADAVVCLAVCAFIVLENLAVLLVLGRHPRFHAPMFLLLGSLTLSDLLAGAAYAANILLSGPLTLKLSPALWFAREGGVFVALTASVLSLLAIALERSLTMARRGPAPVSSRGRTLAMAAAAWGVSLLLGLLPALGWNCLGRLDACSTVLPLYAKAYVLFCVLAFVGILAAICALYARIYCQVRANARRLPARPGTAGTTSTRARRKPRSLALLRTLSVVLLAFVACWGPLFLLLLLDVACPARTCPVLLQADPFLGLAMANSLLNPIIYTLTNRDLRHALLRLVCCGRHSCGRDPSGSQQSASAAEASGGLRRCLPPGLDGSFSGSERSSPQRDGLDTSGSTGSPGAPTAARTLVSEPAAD
- ASSAY_PROTOCOL: Intracellular Ca2+ release (FLIPR) agonist potency, S1P5
- Format: cell-based
- ASSAY_SETUP: recombinant CHO-K1 cells expressing human S1PR5, aequorin, Gq/i5; Calcium 5 FLIPR; read-out: S1P5 EC50 range
We begin with a simple list: items and their reported EC50.
ENDPOINT_LABEL: EC50

# MOLECULE, ENDPOINT_LABEL, ENDPOINT_VALUE
records = [
    ("O=C(O)C1CN(C2COc3cc(Oc4c(Cl)cccc4Cl)ccc3C2)C1 (centres unmarked)", "EC50", "1 to 10 µM"),
    ("CCCC1(C(=O)O)CN([C@@H]2COc3cc(OCc4c(Cl)cccc4Cl)ccc3C2)C1", "EC50", "1 to 10 µM"),
    ("COc1ccc(F)cc1COc1ccc2c(c1)CCC(OCC(=O)O)C2 (centres unmarked)", "EC50", "0.1 to 1 µM"),
    ("O=C(O)COC1CCc2cc(OCc3cc(Cl)ccc3F)ccc2C1 (centres unmarked)", "EC50", "1 to 10 µM"),
    ("O=C(O)C1CN(C2COc3cc(OCc4c(Cl)cccc4Cl)ccc3C2)C1 (single isomer, unassigned) [Compound 145]", "EC50", "0.1 to 1 µM"),
    ("COc1cccc(F)c1COc1ccc2c(c1)CCC(OCC(=O)O)C2 (centres unmarked)", "EC50", "1 to 10 µM"),
    ("CCc1cccc(Cl)c1COc1ccc2c(c1)CCC(NCC(=O)NO)C2 (centres unmarked)", "EC50", "< 0.01 µM"),
    ("O=C(O)CNC1COc2cc(-c3ccc(OCc4cccc(F)c4F)cc3)ccc2C1 (centres unmarked)", "EC50", "< 0.01 µM"),
]
